// provenance: BindingDB's records for doi:10.1021/acs.jmedchem.7b01449

Test: Inhibition of RIPK1 in mouse L929sA cells transfected with human Fas assessed as inhibition in TNF-induced necroptosis pretreated for 24 hrs followed by TNF and zVAD.fmk addition measured after 3 hrs by Hoechst 33342/propidium iodide staining-based assay
quantity.kind: IC50 (nM)

{"columns": ["compound.structure", "quantity.kind", "bound.operator", "data.value"],
 "data": [
  ["Cc1[nH]nc(Nc2cc(N3CCCCC3)nc(Sc3ccc(NC(=O)C4CCCCC4)cc3)n2)c1C", "IC50", ">", 3000],
  ["Cc1cc(Nc2nc(Nc3ccc(NC(=O)C4CCCCC4)cc3)nc(N3CCCCC3)n2)n[nH]1", "IC50", ">", 3000],
  ["Cc1[nH]nc(Nc2cc(N3CCOCC3)nc(Nc3ccc(NC(=O)C4CC4)cc3)n2)c1C", "IC50", ">", 3000],
  ["Cc1cc(Nc2cc(N3CCOCC3)nc(Sc3ccc(NC(=O)C4CC4)cc3)n2)n[nH]1", "IC50", "=", 810],
  ["Cc1cc(Nc2cc(N3CCN(C)CC3)nc(Nc3ccc(NC(=O)C4CCCCC4)cc3)n2)n[nH]1", "IC50", "=", 1750]
]}

---

Assay: Inhibition of RIPK1 in mouse L929sA cells transfected with human Fas assessed as inhibition in TNF-induced necroptosis pretreated for 24 hrs followed by TNF and zVAD.fmk addition measured after 3 hrs by Hoechst 33342/propidium iodide staining-based assay
pIC50: −log10 of the molar value.
quantity.kind: pIC50

{"columns": ["compound.structure", "data.value"],
 "data": [
  ["Cc1[nH]nc(Nc2nc(Nc3ccc(NC(=O)C4CC4)cc3)nc(N3CCN(C)CC3)n2)c1C", "< 5.52"],
  ["Cc1[nH]nc(Nc2nc(Nc3ccc(NC(=O)C4CC4)cc3)nc(N3CCCCC3)n2)c1C", "< 5.52"],
  ["Cc1[nH]nc(Nc2cc(N3CCN(C)CC3)nc(Nc3ccc(NC(=O)C4CCCCC4)cc3)n2)c1C", "< 5.52"],
  ["Cc1cc(Nc2nc(Nc3ccc(NC(=O)C4CCCCC4)cc3)nc(N3CCOCC3)n2)n[nH]1", "< 5.52"],
  ["Cc1[nH]nc(Nc2cc(N3CCCCC3)nc(Nc3ccc(NC(=O)C4CCCCC4)cc3)n2)c1C", "< 5.52"],
  ["Cc1cc(Nc2nc(Sc3ccc(NC(=O)C4CCCCC4)cc3)nc(N3CCOCC3)n2)n[nH]1", 5.79],
  ["Cc1[nH]nc(Nc2nc(Nc3ccc(NC(=O)C4CC4)cc3)nc(N3CCOCC3)n2)c1C", "< 5.52"],
  ["Cc1cc(Nc2cc(N3CCOCC3)nc(Sc3ccc(NC(=O)C4CCCCC4)cc3)n2)n[nH]1", 6.44],
  ["Cc1cc(Nc2nc(Sc3ccc(NC(=O)C4CCCCC4)cc3)nc(N3CCN(C)CC3)n2)n[nH]1", "< 5.52"],
  ["Cc1[nH]nc(Nc2cc(N3CCOCC3)nc(Sc3ccc(NC(=O)C4CCCCC4)cc3)n2)c1C", "< 5.52"],
  ["Cc1[nH]nc(Nc2nc(Sc3ccc(NC(=O)C4CCCCC4)cc3)nc(N3CCOCC3)n2)c1C", "< 5.52"]
]}

---

Experiment: Inhibition of RIPK1 in mouse L929sA cells transfected with human Fas assessed as inhibition in TNF-induced necroptosis pretreated for 0.5 hrs followed by TNF and zVAD.fmk addition measured after 3 hrs by Hoechst 33342/propidium iodide staining-based assay
pIC50: −log10 of the molar value.
Listed next: entries and their corresponding pIC50.

{"columns": ["compound.structure", "pIC50"],
 "data": [
  ["Cc1[nH]nc(Nc2cc(N3CCCCC3)nc(Nc3ccc(NC(=O)C4CCCCC4)cc3)n2)c1C", "< 5.52"],
  ["Cc1[nH]nc(Nc2cc(N3CCOCC3)nc(Nc3ccc(NC(=O)C4CCCCC4)cc3)n2)c1C", "< 5.52"],
  ["Cc1[nH]nc(Nc2nc(Nc3ccc(NC(=O)C4CC4)cc3)nc(N3CCOCC3)n2)c1C", "< 5.52"],
  ["Cc1cc(Nc2nc(Sc3ccc(NC(=O)C4CCCCC4)cc3)nc(N3CCN(C)CC3)n2)n[nH]1", "< 5.52"],
  ["Cc1cc(Nc2nc(Sc3ccc(NC(=O)C4CC4)cc3)nc(N3CCN(C)CC3)n2)n[nH]1", "< 5.52"],
  ["Cc1cc(Nc2cc(N3CCN(C)CC3)nc(Nc3ccc(NC(=O)C4CCCCC4)cc3)n2)n[nH]1", 6.04],
  ["Cc1[nH]nc(Nc2cc(N3CCOCC3)nc(Nc3ccc(NC(=O)C4CC4)cc3)n2)c1C", "< 5.52"],
  ["Cc1[nH]nc(Nc2nc(Nc3ccc(NC(=O)C4CC4)cc3)nc(N3CCN(C)CC3)n2)c1C", "< 5.52"],
  ["Cc1[nH]nc(Nc2cc(N3CCOCC3)nc(Sc3ccc(NC(=O)C4CCCCC4)cc3)n2)c1C", "< 5.52"],
  ["Cc1cc(Nc2cc(N3CCCCC3)nc(Sc3ccc(NC(=O)C4CCCCC4)cc3)n2)n[nH]1", 5.76],
  ["Cc1cc(Nc2cc(N3CCOCC3)nc(Nc3ccc(NC(=O)C4CCCCC4)cc3)n2)n[nH]1", 6.19],
  ["Cc1cc(Nc2nc(Sc3ccc(NC(=O)C4CCCCC4)cc3)nc(N3CCOCC3)n2)n[nH]1", "< 5.52"],
  ["Cc1cc(Nc2cc(N3CCOCC3)nc(Sc3ccc(NC(=O)C4CC4)cc3)n2)n[nH]1", 6.41],
  ["CCN1CCN(c2cc(Nc3n[nH]c(C)c3C)nc(Sc3ccc(NC(=O)C4CC4)cc3)n2)CC1", "< 5.52"],
  ["Cc1cc(Nc2nc(Sc3ccc(NC(=O)C4CC4)cc3)nc(N3CCCCC3)n2)n[nH]1", "< 5.52"],
  ["Cc1cc(Nc2cc(N3CCOCC3)nc(Sc3ccc(NC(=O)C4CCCCC4)cc3)n2)n[nH]1", 6.42],
  ["Cc1cc(Nc2cc(N3CCCCC3)nc(Nc3ccc(NC(=O)C4CC4)cc3)n2)n[nH]1", 6.28],
  ["Cc1[nH]nc(Nc2nc(Nc3ccc(NC(=O)C4CC4)cc3)nc(N3CCCCC3)n2)c1C", "< 5.52"]
]}
